Target: hPPARγ ligand binding domain (GST-hPPARγ LBD) (Homo sapiens)
Construct: GST-hPPARγ LBD (amino acids 175-476)
Sequence (P37231 175-476 isoform P37231-2): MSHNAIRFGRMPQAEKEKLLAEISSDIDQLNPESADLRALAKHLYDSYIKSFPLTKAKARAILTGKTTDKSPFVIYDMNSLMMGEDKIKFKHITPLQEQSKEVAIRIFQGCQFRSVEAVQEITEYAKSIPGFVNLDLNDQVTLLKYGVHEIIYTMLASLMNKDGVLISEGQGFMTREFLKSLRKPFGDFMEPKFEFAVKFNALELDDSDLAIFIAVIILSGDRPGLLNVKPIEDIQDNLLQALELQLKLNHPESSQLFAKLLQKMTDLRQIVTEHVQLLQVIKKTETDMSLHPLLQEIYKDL
Assay: PPARγ functional binding assay (CARLA, TR-FRET)
Settings: SRC-1 peptide recruitment, 3 hours at RT, read-out: EC50 in the PPARγ receptor binding assay
endpoint: EC50

IN: Suppose we examine the compound Cc1oc(-c2ccc(Cl)c(F)c2)nc1COc1cccc(C(C)(C)C(=O)N2CCC[C@@H]2C(=O)O)c1 [Example 9] ; what EC50 value has been reported?
OUT: ~1800 nM
